target: T1, human MSLN-FL-his protein (human, UniProt Q13421 296-580); experiment: competitive ELISA; row F8-15.19; note: test concentration or dose not given here
T1 construct: made in HEK293E cells, purified on nickel column; also called hMSLN-FL-his; human MSLN full-length protein; not shown: His tag
T1 sequence (Q13421 other isoform, or with tags, fused parts or gaps): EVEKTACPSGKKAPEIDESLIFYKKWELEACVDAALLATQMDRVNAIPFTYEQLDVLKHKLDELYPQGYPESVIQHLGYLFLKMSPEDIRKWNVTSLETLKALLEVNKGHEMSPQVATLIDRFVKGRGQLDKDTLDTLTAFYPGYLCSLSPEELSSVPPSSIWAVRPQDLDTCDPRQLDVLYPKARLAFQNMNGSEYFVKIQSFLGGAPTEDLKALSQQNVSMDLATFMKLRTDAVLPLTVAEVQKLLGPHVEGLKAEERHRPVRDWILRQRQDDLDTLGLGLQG
Entries and their competition rate

>  <Binder>
S009-F8-5.15 (antibody, human IgG1, kappa, V domains shown, human-murine chimeric antibody, human IgG1/kappa constant regions) VH: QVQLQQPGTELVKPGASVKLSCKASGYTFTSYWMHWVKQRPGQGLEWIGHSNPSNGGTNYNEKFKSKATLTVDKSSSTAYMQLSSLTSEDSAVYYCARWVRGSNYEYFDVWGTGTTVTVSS VL: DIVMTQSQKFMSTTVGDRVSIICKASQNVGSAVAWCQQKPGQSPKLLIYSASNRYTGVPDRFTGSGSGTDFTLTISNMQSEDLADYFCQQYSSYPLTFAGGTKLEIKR

>  <competition rate / %>
82.2

$$$$
>  <Binder>
S009-F8-4.5 (antibody, human IgG1, kappa, V domains shown, human-murine chimeric antibody, human IgG1/kappa constant regions) VH: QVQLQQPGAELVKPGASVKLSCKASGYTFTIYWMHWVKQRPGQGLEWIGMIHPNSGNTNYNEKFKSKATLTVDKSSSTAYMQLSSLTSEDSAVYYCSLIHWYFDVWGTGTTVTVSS VL: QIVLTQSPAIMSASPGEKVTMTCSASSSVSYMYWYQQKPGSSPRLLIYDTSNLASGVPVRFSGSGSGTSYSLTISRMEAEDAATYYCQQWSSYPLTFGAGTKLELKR

>  <competition rate / %>
100

$$$$
>  <Binder>
S009-F8-13.8 (antibody, human IgG1, kappa, V domains shown, human-murine chimeric antibody, human IgG1/kappa constant regions) VH: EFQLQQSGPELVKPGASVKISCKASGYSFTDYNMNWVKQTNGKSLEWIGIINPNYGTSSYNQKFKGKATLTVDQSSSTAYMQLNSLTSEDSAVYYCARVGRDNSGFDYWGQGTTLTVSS VL: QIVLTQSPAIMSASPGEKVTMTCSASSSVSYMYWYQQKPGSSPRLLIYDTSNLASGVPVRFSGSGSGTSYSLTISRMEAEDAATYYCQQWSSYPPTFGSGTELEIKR

>  <competition rate / %>
99.8

$$$$
>  <Binder>
S009-F8-7.5 (antibody, human IgG1, kappa, V domains shown, human-murine chimeric antibody, human IgG1/kappa constant regions) VH: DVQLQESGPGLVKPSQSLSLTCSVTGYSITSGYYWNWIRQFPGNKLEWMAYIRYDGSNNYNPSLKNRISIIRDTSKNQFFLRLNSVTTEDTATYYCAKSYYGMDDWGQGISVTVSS VL: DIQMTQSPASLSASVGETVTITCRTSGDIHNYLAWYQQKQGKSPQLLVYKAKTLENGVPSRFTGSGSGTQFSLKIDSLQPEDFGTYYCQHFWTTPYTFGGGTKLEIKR

>  <competition rate / %>
-15.7

$$$$
>  <Binder>
S009-F8-27.1 (antibody, human IgG1, kappa, V domains shown, human-murine chimeric antibody, human IgG1/kappa constant regions) VH: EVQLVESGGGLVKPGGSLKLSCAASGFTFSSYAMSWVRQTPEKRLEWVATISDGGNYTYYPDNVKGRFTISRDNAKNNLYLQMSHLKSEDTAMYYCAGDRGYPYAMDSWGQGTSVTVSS VL: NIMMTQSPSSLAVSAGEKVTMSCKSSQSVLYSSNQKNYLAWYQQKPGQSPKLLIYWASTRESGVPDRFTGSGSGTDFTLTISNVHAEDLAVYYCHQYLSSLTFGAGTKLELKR

>  <competition rate / %>
99.2

$$$$

This collection of values is drawn from patent US20250250357A1.
